B1: Osa-1-4 twister ribozyme (parent)
chain: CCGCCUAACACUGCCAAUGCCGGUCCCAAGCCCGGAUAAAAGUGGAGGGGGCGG

# Variants of: B1
# testProtocol: self-cleavage, relative activity (ratio to wild type); higher = more cleavage; co-transcriptional
Decision: self-cleavage compared against 0.1; not below it gives TRUE, below it gives FALSE.

>>> classassignment("A10G C25U")
"TRUE"
>>> classassignment("A10G G13C")
"FALSE"
>>> classassignment("A10C G23U")
"FALSE"
>>> classassignment("C25G G53A")
"FALSE"
>>> classassignment("A28C G13A")
"TRUE"
>>> classassignment("G19A G54A")
"TRUE"
>>> classassignment("A39C G48C")
"FALSE"
>>> classassignment("A28U C9U")
"TRUE"
>>> classassignment("C21A U37G")
"TRUE"
>>> classassignment("A36U G53C")
"TRUE"
>>> classassignment("A38G A41G")
"TRUE"

Values compiled from the RNAGym collection of RNA variant scans (doi:10.1002/anie.201605470).
